These data points were gathered from the supplement of paper PMC10307832.

System: EBC-1
test: relative viability (nuclei count vs DMSO), 5 days (fraction); higher = more cells survive
condition_summary: first compound 1.265 µM
observed_property: relative viability

{"molecule": "COc1cc(N2CCC(C(N)=O)CC2)ccc1Nc1nc(N)c(Cl)c(Nc2ccccc2S(=O)(=O)C(C)C)n1 [HG-5-88-01] + C[C@@H](Oc1cc(-c2cnn(C3CCNCC3)c2)cnc1N)c1c(Cl)ccc(F)c1Cl [Crizotinib] (partner 1 µM)", "observed_property": "relative viability", "result": 0.171}
{"molecule": "Clc1ccc(Nc2nnc(Cc3ccncc3)c3ccccc23)cc1 [Vatalanib] + CS(=O)(=O)CCNCc1ccc(-c2ccc3ncnc(Nc4ccc(OCc5cccc(F)c5)c(Cl)c4)c3c2)o1 [Lapatinib] (partner 2 µM)", "observed_property": "relative viability", "result": 0.232}
{"molecule": "COc1cc(N2CCC(C(N)=O)CC2)ccc1Nc1nc(N)c(Cl)c(Nc2ccccc2S(=O)(=O)C(C)C)n1 [HG-5-88-01] + C[C@]1(O)C[C@@H](c2nc(-c3ccc4ccc(-c5ccccc5)nc4c3)c3c(N)nccn32)C1 [Linsitinib] (partner 1 µM)", "observed_property": "relative viability", "result": 0.847}
{"molecule": "COc1cc(N2CCC(C(N)=O)CC2)ccc1Nc1nc(N)c(Cl)c(Nc2ccccc2S(=O)(=O)C(C)C)n1 [HG-5-88-01] + CC1(C)CCC(c2ccc(Cl)cc2)=C(CN2CCN(c3ccc(C(=O)NS(=O)(=O)c4ccc(N[C@H](CCN5CCOCC5)CSc5ccccc5)c(S(=O)(=O)C(F)(F)F)c4)cc3)CC2)C1 [Navitoclax] (partner 0.5 µM)", "observed_property": "relative viability", "result": 0.241}
{"molecule": "COc1cc(N2CCC(C(N)=O)CC2)ccc1Nc1nc(N)c(Cl)c(Nc2ccccc2S(=O)(=O)C(C)C)n1 [HG-5-88-01] + O=C(c1cc(Cc2n[nH]c(=O)c3ccccc23)ccc1F)N1CCN(C(=O)C2CC2)CC1 [Olaparib] (partner 8 µM)", "observed_property": "relative viability", "result": 0.668}
{"molecule": "Clc1ccc(Nc2nnc(Cc3ccncc3)c3ccccc23)cc1 [Vatalanib] + CC(C)C[C@H](NC(=O)[C@H](Cc1ccccc1)NC(=O)c1cnccn1)B(O)O [Bortezomib] (partner 0.002 µM)", "observed_property": "relative viability", "result": 0.519}
{"molecule": "Clc1ccc(Nc2nnc(Cc3ccncc3)c3ccccc23)cc1 [Vatalanib] + O=C(c1cc(Cc2n[nH]c(=O)c3ccccc23)ccc1F)N1CCN(C(=O)C2CC2)CC1 [Olaparib] (partner 8 µM)", "observed_property": "relative viability", "result": 0.663}
